Target: Serine/threonine-protein kinase DCLK1 (Homo sapiens) (UniProt O15075)
Sequence (O15075 whole entry): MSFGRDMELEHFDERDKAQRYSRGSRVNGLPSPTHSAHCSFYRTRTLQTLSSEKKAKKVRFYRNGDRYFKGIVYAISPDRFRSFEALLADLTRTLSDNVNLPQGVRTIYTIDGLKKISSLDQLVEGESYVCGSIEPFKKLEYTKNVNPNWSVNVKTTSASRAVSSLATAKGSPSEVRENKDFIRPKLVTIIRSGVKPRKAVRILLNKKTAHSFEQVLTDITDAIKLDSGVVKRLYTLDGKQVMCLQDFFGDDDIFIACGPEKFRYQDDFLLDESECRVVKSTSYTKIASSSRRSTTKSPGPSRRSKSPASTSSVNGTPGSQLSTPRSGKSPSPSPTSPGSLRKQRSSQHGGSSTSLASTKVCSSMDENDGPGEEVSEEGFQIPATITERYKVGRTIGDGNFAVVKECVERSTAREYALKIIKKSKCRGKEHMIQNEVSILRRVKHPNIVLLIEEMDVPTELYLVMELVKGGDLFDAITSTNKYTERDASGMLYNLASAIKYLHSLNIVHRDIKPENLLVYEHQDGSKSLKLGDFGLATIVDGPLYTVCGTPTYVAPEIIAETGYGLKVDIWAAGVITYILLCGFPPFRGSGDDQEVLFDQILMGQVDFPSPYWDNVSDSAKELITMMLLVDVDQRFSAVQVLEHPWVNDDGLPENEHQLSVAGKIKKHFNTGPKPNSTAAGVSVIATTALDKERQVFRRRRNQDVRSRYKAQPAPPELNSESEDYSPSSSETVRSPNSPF
Assay: Inhibition of DCAMKL1 at 1 uM
metric: inhibition (%)
Value expressed in %; do not type the unit.

Record excerpt, results attached:
>  <compound_string>
FC(F)(F)c1ccc(Cl)cc1CN1CCNc2ncc(-c3ccnc(N4CCNCC4)c3)cc21

>  <inhibition [%]>
98

$$$$
>  <compound_string>
CN1CCN(c2ccc(-c3cnc4c(c3)N(Cc3cc(F)ccc3F)CCN4)cn2)CC1

>  <inhibition [%]>
94

$$$$
>  <compound_string>
CN1CCN(c2ccc(-c3cnc4c(c3)N(Cc3cc(Cl)ccc3Cl)CCN4)cn2)CC1

>  <inhibition [%]>
90

$$$$

input: Any idea what its inhibition is? The compound is CN1CCN(c2ccc(-c3cnc4c(c3)N(Cc3cc(Cl)ccc3C(F)(F)F)CCN4)cn2)CC1
output: 91
